# SYSTEM_NAME: chicken gizzard smooth muscle myosin subfragment-1 chemically crosslinked to cardiac or skeletal actin (Gallus gallus)
Please respond with yes when measured IC50 is strictly beneath 300 nM, and with no in all other cases.

Exercise: Dear reviewer, please state whether O=C(NCc1cccnc1)c1ccc(-c2ccccc2)nc1NCCc1c[nH]cn1 has IC50 strictly beneath 300 nM.
Solution: no

Exercise: Dear reviewer, please state whether Cn1cc(-c2nc(NCCc3cccc(F)c3)c(C(=O)NC[C@H]3CCC(=O)N3CCCN)cc2Cl)cn1 has IC50 strictly beneath 300 nM.
Solution: yes

Exercise: Dear reviewer, please state whether COC(=O)c1ccc(-c2ccc(C(=O)NCc3cccnc3)c(NCCc3ccccn3)n2)cc1 has IC50 strictly beneath 300 nM.
Solution: no

Exercise: Dear reviewer, please state whether N#Cc1ccccc1-c1ccc(C(=O)NC[C@H]2CCN2C(=O)CO)c(NCCc2cccc(F)c2)n1 has IC50 strictly beneath 300 nM.
Solution: yes

Exercise: Dear reviewer, please state whether N#Cc1ccc(CNC(=O)c2ccc(-c3ccccc3C#N)nc2NCCc2cccc(F)c2)cc1 has IC50 strictly beneath 300 nM.
Solution: no

Exercise: Dear reviewer, please state whether N#Cc1ccccc1-c1ccc(C(=O)NCCN2CCC[C@H](N)C2=O)c(NCCc2cccc(F)c2)n1 (stereo in doubt) has IC50 strictly beneath 300 nM.
Solution: no

Exercise: Dear reviewer, please state whether N#Cc1ccccc1-c1ccc(C(=O)NCCNC(=O)CN)c(NCCc2cccc(F)c2)n1 has IC50 strictly beneath 300 nM.
Solution: no

Exercise: Dear reviewer, please state whether N#Cc1ccccc1-c1ccc(C(=O)NCC2CCCC(=O)N2)c(NCCc2cccc(F)c2)n1 (stereo not drawn) has IC50 strictly beneath 300 nM.
Solution: yes

----------
# SYSTEM_NAME: chicken gizzard smooth muscle myosin subfragment-1 chemically crosslinked to cardiac or skeletal actin (Gallus gallus, UniProt P10587)
I'd appreciate it if you could supply IC50 values for the items below.
Form entry: value (µM) — number only.

Exercise: Request the reported IC50 associated with CC(=O)N1CC[C@@H](CNC(=O)c2ccc(-c3ccccc3)nc2NCCc2ccccn2)C1
Solution: 25.2

Exercise: Request the reported IC50 associated with N#Cc1ccccc1-c1ccc(C(=O)NC[C@H]2CN(C(=O)CN)CCN2)c(NCCc2cccc(F)c2)n1
Solution: 8.88

Exercise: Request the reported IC50 associated with COC(=O)N1CCC(CNC(=O)c2ccc(-c3ccccc3C#N)nc2NCCc2cccc(F)c2)CC1
Solution: 2.13

Exercise: Request the reported IC50 associated with N#Cc1ccccc1-c1ccc(C(=O)NC[C@H]2CCCN(C(=O)CN)C2)c(NCCc2cccc(F)c2)n1
Solution: 0.246

Exercise: Request the reported IC50 associated with N#Cc1ccccc1-c1ccc(C(=O)NC[C@H]2CCCN2C(=O)[C@@H](N)CO)c(NCCc2cccc(F)c2)n1
Solution: 0.173

Exercise: Request the reported IC50 associated with CC(=O)N1CCN(C(C)=O)[C@@H](CNC(=O)c2ccc(-c3ccccc3C#N)nc2NCCc2cccc(F)c2)C1
Solution: 17.2

Exercise: Request the reported IC50 associated with CNC(=O)[C@@H](CO)NC(=O)c1ccc(-c2ccccc2C#N)nc1NCCc1cccc(F)c1
Solution: 0.544

Exercise: Request the reported IC50 associated with CN(C)C(=O)[C@@H](N)CNC(=O)c1ccc(-c2ccccc2C#N)nc1NCCc1cccc(F)c1
Solution: 8.18

----------
# SYSTEM_NAME: chicken gizzard smooth muscle myosin subfragment-1 chemically crosslinked to cardiac or skeletal actin (Gallus gallus)
pIC50: −log10 of the molar value.
Each entry gets -1 if its pIC50 stays under 6, and 1 if its pIC50 is 6 or above.

Exercise: Determine whether measured pIC50 meets or exceeds 6 for N#Cc1ccccc1-c1ccc(C(=O)NC[C@H]2CCCCN2C(=O)CCN)c(NCCc2cccc(F)c2)n1
Solution: 1

Exercise: Determine whether measured pIC50 meets or exceeds 6 for N#Cc1ccccc1-c1ccc(C(=O)NCC(=O)NCCC(=O)O)c(NCCc2cccc(F)c2)n1
Solution: -1

Exercise: Determine whether measured pIC50 meets or exceeds 6 for C[C@@H](CNC(=O)c1ccc(-c2ccccc2C#N)nc1NCCc1cccc(F)c1)N(C)C(=O)CCCN
Solution: -1

Exercise: Determine whether measured pIC50 meets or exceeds 6 for O=C(NCc1cccnc1)c1ccc(-c2ccccn2)nc1NCCc1ccccn1
Solution: -1

Exercise: Determine whether measured pIC50 meets or exceeds 6 for O=C(NCC(CO)CO)c1cc(F)c(-c2cn[nH]c2)nc1NCCc1cccc(F)c1
Solution: 1

Exercise: Determine whether measured pIC50 meets or exceeds 6 for N#Cc1ccccc1-c1ccc(C(=O)NCc2ccc(N3CCCC3)nc2)c(NCCc2cccc(F)c2)n1
Solution: -1

Exercise: Determine whether measured pIC50 meets or exceeds 6 for N#Cc1ccccc1-c1ccc(C(=O)NCc2cccnc2)c(NCCc2cc(F)cc(F)c2)n1
Solution: 1

Exercise: Determine whether measured pIC50 meets or exceeds 6 for O=C(NCc1cccnc1)c1ccc(-c2ccccc2)nc1NCC(O)c1cccc(F)c1 (stereo not drawn)
Solution: 1

Exercise: Determine whether measured pIC50 meets or exceeds 6 for N#Cc1ccccc1-c1ccc(C(=O)NC[C@H]2CCCCN2C(=O)OCCN)c(NCCc2cccc(F)c2)n1
Solution: 1

Exercise: Determine whether measured pIC50 meets or exceeds 6 for N#Cc1ccccc1-c1ccc(C(=O)NCc2cccnc2CNC(=O)c2ccc(-c3ccccc3C#N)nc2NCCc2cccc(F)c2)c(NCCc2cccc(F)c2)n1
Solution: -1

Exercise: Determine whether measured pIC50 meets or exceeds 6 for N#Cc1ccccc1-c1ccc(C(=O)NCc2cccnc2)c(NCC(O)c2cccc(F)c2)n1 (stereo not drawn)
Solution: 1

Exercise: Determine whether measured pIC50 meets or exceeds 6 for CN(C)C(=O)CNC(=O)c1ccc(-c2ccccc2C#N)nc1NCCc1cccc(F)c1
Solution: 1

Exercise: Determine whether measured pIC50 meets or exceeds 6 for N#Cc1ccc(F)cc1-c1ccc(C(=O)NCc2cccnc2)c(NCCc2cccc(F)c2)n1
Solution: 1

Exercise: Determine whether measured pIC50 meets or exceeds 6 for O=C(NCc1cccnc1)c1ccc(-c2ccccc2)nc1NCCc1cccc(Cl)c1
Solution: 1

----------
I'd appreciate it if you could supply pIC50 values for the items below.
# SYSTEM_NAME: chicken gizzard smooth muscle myosin subfragment-1 chemically crosslinked to cardiac or skeletal actin (Gallus gallus)
Units for pIC50: none; it is -log10 of a concentration expressed in mol/L.

Exercise: Request the reported pIC50 associated with Cn1cc(-c2nc(NCCc3cccc(F)c3)c(C(=O)NCc3cccnc3)cc2Br)cn1
Solution: 7.64

Exercise: Request the reported pIC50 associated with CC(C)(C)OC(=O)NCc1ncccc1CNC(=O)c1cc(C#N)c(-c2cn[nH]c2)nc1NCCc1cccc(F)c1
Solution: 6.00

Exercise: Request the reported pIC50 associated with Cn1cc(-c2nc(NCCc3cccc(F)c3)c(C(=O)NC[C@H]3CCN3C(=O)CCCNC(=O)OC(C)(C)C)cc2F)cn1
Solution: 6.91

Exercise: Request the reported pIC50 associated with NCC(=O)N1CCC[C@@H]1CNC(=O)c1cc(F)c(-c2cc[nH]n2)nc1NCCc1cccc(F)c1
Solution: 6.97

Exercise: Request the reported pIC50 associated with CC1(C)OCC(CNC(=O)c2cc(F)c(-c3cn[nH]c3)nc2NCCc2cccc(F)c2)CO1
Solution: 6.03

Exercise: Request the reported pIC50 associated with CN(C)CCNC(=O)CNC(=O)c1ccc(-c2ccccc2C#N)nc1NCCc1cccc(F)c1
Solution: 5.03

Exercise: Request the reported pIC50 associated with CC(C)(C)OC(=O)NCCCN1C(=O)CCC[C@@H]1CNC(=O)c1ccc(-c2ccccc2C#N)nc1NCCc1cccc(F)c1
Solution: 6.41

Exercise: Request the reported pIC50 associated with CNC(=O)CCNC(=O)c1ccc(-c2ccccc2C#N)nc1NCCc1cccc(F)c1
Solution: 6.47

Exercise: Request the reported pIC50 associated with N#Cc1ccccc1-c1ccc(C(=O)NCc2cccnc2CN)c(NCCc2cccc(F)c2)n1
Solution: 8.22

Exercise: Request the reported pIC50 associated with O=C(NCc1cccnc1)c1ccc(-c2cc[nH]n2)nc1NCCc1cccc(F)c1
Solution: 6.91

Exercise: Request the reported pIC50 associated with COC(=O)CNC[C@H](N)CNC(=O)c1ccc(-c2cnn(C)c2)nc1NCCc1cccc(F)c1
Solution: 4.96

Exercise: Request the reported pIC50 associated with O=C(NCc1cc[nH]n1)c1ccc(-c2cn[nH]c2)nc1NCCc1cccc(F)c1
Solution: 7.47

Exercise: Request the reported pIC50 associated with N#Cc1ccccc1-c1ccc(C(=O)NCc2ccc(F)c(F)c2)c(NCCc2cccc(F)c2)n1
Solution: 5.70

Exercise: Request the reported pIC50 associated with Cn1cc(-c2nc(NCCc3cccc(F)c3)c(C(=O)NC[C@H]3CCCN3C(=O)[C@@H](N)CCCN)cc2F)cn1
Solution: 7.11

Exercise: Request the reported pIC50 associated with CC(=O)c1ccc(-c2ccc(C(=O)NCc3cccnc3)c(NCCc3ccccn3)n2)cc1
Solution: 5.67

Exercise: Request the reported pIC50 associated with O=C(NCc1cc[nH]n1)c1ccc(-c2cc[nH]n2)nc1NCCc1cccc(F)c1
Solution: 7.04

Exercise: Request the reported pIC50 associated with Cn1cc(-c2nc(NCCc3cccc(F)c3)c(C(=O)NC[C@H]3CCCN3C(=O)CCCN)cc2Cl)cn1
Solution: 7.33

Exercise: Request the reported pIC50 associated with C[C@@H](CO)CNC(=O)c1ccc(-c2ccccc2C#N)nc1NCCc1cccc(F)c1
Solution: 7.21

Values from patent US7932270B2
